Parameter selectivity ratio: see the listing below.
# assay text: Therapeutic index, ratio of MHC for human RBC to geometric mean of peptide MIC for Escherichia coli ATCC 25922
# Format: toxicity
# reported conditions: pooled result: one value given for 6 cell lines, strains, targets or settings, read-out: TI
Where a SMILES comes first, the peptide text is derived from it.
measured metric: selectivity ratio

- CC(C)C[C@H](NC(=O)[C@H](CCCNC(=N)N)NC(=O)[C@H](CC(C)C)NC(=O)[C@H](CCCNC(=N)N)NC(=O)[C@@H](NC(=O)[C@H](CCCCN)NC(=O)[C@H](CC(C)C)NC(=O)[C@H](CCCNC(=N)N)NC(=O)[C@H](CC(C)C)NC(=O)[C@H](CCCNC(=N)N)NC(=O)[C@@H](N)CC(C)C)[C@@H](C)O)C(=O)N[C@@H](CCCCN)C(N)=O (H-LRLRLKTRLRLK-NH2): 16
- CC(C)C[C@H](NC(=O)[C@H](CCCNC(=N)N)NC(=O)[C@H](Cc1c[nH]c2ccccc12)NC(=O)[C@H](CCCNC(=N)N)NC(=O)[C@@H](NC(=O)[C@H](CCCCN)NC(=O)[C@H](Cc1c[nH]c2ccccc12)NC(=O)[C@H](CCCNC(=N)N)NC(=O)[C@H](CC(C)C)NC(=O)[C@H](CCCNC(=N)N)NC(=O)[C@@H](N)CCCNC(=N)N)[C@@H](C)O)C(=O)N[C@@H](CCCCN)C(N)=O (H-RRLRWKTRWRLK-NH2): 18
